Source: the Immune Epitope Database (IEDB)

molecular target: HLA-A*11:01; assay: IEDB peptide-MHC binding, purified MHC/competitive/radioactivity; filed as Kd, often an IC50 or EC50 that approximates it; bounds were set here for any values at or beyond the usual limits of such assays; conditions: source organism: Vaccinia virus WR
pKd: −log10 of the molar value.
Each entry belongs to exactly one class, chosen by where its pKd falls: low = under 6, moderate = from 6 up to 7, high = 7 and over

These solved cases illustrate the format of a correct answer.
| INPUT SEQUENCE | SYSTEM UNDER TEST | LABEL CLASS |
| --- | --- | --- |
| DVQRTRCKY | HLA-A*11:01 | low |
| LSPAHLINK | HLA-A*11:01 | high |
| SSNKDPITVY | HLA-A*11:01 | low |

[in] Which bin, given its pKd, does `VFTDISMSLY` occupy?
[out] low

[in] Dear colleague, I would appreciate it if you could identify the bin for `KFLEFSNRVY` and reply at your convenience.
[out] low

[in] Class (by measured pKd) for `GSWATSSFR`
[out] high

[in] Would you mind sorting `FALKKLIIDR` into the appropriate category?
[out] low

[in] Which category does the recorded pKd put `LSLSNLDFR` in?
[out] moderate
